All figures here come from PubChem BioAssay.

# Lookup of reported z-score keyed by entry
experiment-notes: MM1S cell viability effects, profiling panel, calcein-AM fluorescence, 48 h, basal (AID 1165);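 note: viability of MM1S multiple myeloma cells under basal unstimulated conditions; test concentration not given here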
measurement-setup: higher = more signal
observed-property: z-score

[[record]]
record_smiles = "Cc1ccc(S[C@]2(C(=O)O)CC(=O)N(C3Cc4ccccc4C3)[C@@H]2c2ccc(CO)cc2)cc1"
observed_property = "z-score"
numeric_result = -0.428

[[record]]
record_smiles = "C=CCN1Cc2ccccc2[C@H]2OC(c3ccc(OCCCO)cc3)=N[C@@]2(CC=C)C1=O"
observed_property = "z-score"
numeric_result = -1.7

[[record]]
record_smiles = "COCCOC(=O)N1C(=O)[C@@]2(c3cc(C#CC4=CCCCC4)ccc31)[C@H](c1ccc(O)cc1)N1[C@H](c3ccccc3)[C@H](c3ccccc3)OC(=O)[C@H]1[C@@H]2C(=O)N1CCN(c2ncccn2)CC1"
observed_property = "z-score"
numeric_result = 0.444

[[record]]
record_smiles = "COC(=O)[C@H](Cc1ccccc1)N1CC(/C=C/C2CC2)=C[C@H]1[C@H](O)Cc1ccccc1"
observed_property = "z-score"
numeric_result = -3.38

[[record]]
record_smiles = "NCCCCCCNC(=O)[C@@H]1C[C@@H]2C(=O)N[C@@H](CCCCN)C(=O)N2[C@@H]1c1cccc(OCCO)c1"
observed_property = "z-score"
numeric_result = 0.835

[[record]]
record_smiles = "O=C1C[C@@](C(=O)NCCN2CCOCC2)(c2ccc([N+](=O)[O-])cc2)[C@@H](c2ccc(CO)cc2I)N1C1CCCCC1"
observed_property = "z-score"
numeric_result = -1.55

[[record]]
record_smiles = "COc1ccc(NC(=O)O[C@H]2[C@H](OC(=O)Nc3ccccc3)[C@@H](OC(=O)Nc3ccccc3)[C@@H](OC)O[C@@H]2CO)cc1"
observed_property = "z-score"
numeric_result = -1.18


----------
System: Neuregulin-1 EGF-like domain
experiment-notes: binders of neuregulin-1 EGF-like domain, primary screen, biochemical, small-molecule microarray, 635 nm fluorescence (AID 1081);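 note: binding of the protein to compounds printed on small-molecule microarray slides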
measurement-setup: small-molecule microarray binding, higher = more signal
Some compounds, each annotated with its measured composite z-score.
observed-property: composite z-score

[[record]]
compound = "C=CCOC(=O)[C@H]1[C@@H]2C(=O)O[C@@H](c3ccccc3)[C@@H](c3ccccc3)N2[C@@H](c2ccc(OCCOC(=O)[C@@H]3C[C@@H]4C(=O)N[C@@H](CCCCN(C)C)C(=O)N4[C@@H]3c3ccc(O)cc3)cc2)[C@]12C(=O)Nc1ccccc12"
numeric_result = 1.26

[[record]]
compound = "CC(C)C(CO)N1C(=O)[C@@H]2C3C(=O)OCCC/C=C\\[C@H]3OC23C=CCN(C(C)(C)C)C(=O)[C@@H]13 (stereo partly specified)"
numeric_result = 1.06

[[record]]
compound = "C=CCOC(=O)[C@H]1[C@@H]2C(=O)O[C@@H](c3ccccc3)[C@@H](c3ccccc3)N2[C@@H](c2ccc(OCCOC(=O)[C@@H]3C[C@@H]4C(=O)N5CCC[C@H]5C(=O)N4[C@@H]3c3ccc(O)cc3)cc2)[C@]12C(=O)Nc1ccc(I)cc12"
numeric_result = 0.718

[[record]]
compound = "C=C(COC)C(=O)CC[C@@H](OC(=O)c1cccnc1)c1ccc(OCCO)cc1"
numeric_result = 1.49

[[record]]
compound = "CN1C(=O)C2C=CC(C(O)COCc3ccccc3)N(N(c3ccccc3)c3ccccc3)C2C1=O (stereo unspecified)"
numeric_result = 1.03

[[record]]
compound = "NC(N)=NCCCn1cc(CNC(=O)[C@@H](N)Cc2ccccc2)nn1"
numeric_result = 1.49


----------
target-or-system: NADPH oxidase 5 (Homo sapiens) (UniProt Q96PH1)
Sequence (Q96PH1 whole entry, looked up): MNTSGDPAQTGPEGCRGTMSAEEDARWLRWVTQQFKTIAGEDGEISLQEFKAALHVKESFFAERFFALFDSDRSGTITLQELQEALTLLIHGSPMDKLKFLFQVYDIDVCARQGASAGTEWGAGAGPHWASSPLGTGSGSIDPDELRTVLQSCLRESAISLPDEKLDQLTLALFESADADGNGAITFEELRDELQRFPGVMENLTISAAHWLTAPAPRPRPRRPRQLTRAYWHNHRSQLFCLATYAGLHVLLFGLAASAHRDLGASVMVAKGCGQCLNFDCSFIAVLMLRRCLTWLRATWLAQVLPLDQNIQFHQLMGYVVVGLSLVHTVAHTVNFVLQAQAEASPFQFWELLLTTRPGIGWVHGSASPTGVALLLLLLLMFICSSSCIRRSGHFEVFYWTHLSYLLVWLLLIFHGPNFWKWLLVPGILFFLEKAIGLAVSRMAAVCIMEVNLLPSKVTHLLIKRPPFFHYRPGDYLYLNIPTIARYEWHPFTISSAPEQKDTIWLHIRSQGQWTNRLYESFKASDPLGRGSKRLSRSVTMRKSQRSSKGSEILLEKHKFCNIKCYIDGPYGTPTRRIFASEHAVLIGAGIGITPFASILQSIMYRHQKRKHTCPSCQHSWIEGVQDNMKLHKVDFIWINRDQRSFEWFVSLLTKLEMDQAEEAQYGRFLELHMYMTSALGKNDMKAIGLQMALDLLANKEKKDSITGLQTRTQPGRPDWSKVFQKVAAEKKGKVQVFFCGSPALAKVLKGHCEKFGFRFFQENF
experiment-notes: NOX5-dependent H2O2 signal modulators, primary screen, NOX inhibitor project, cell-based, HEK293-NOX5, Amplex Red fluorescence (AID 1161)
measurement-setup: HEK293-NOX5, ionomycin, 45 min, higher = more signal
observed-property: z-score

[[record]]
compound = "COC(=O)CCCCCCC(=O)Nc1ccc(NC(=O)CCCC[P+](c2ccccc2)(c2ccccc2)c2ccccc2)cc1"
observed_property = "z-score"
numeric_result = 0.0901

[[record]]
compound = "C[N+](C)(C)CCCC[C@@H]1NC(=O)[C@H]2C[C@@H](C(=O)NCCCCCCN)[C@@H](c3ccc(O)cc3)N2C1=O"
observed_property = "z-score"
numeric_result = 0.273

[[record]]
compound = "CC=CC(O)C1C=CC2C(=O)N(c3ccccc3)C(=O)C2N1Nc1ccccc1F (centres undefined)"
observed_property = "z-score"
numeric_result = -2

[[record]]
compound = "CN(C)C(=O)[C@]1(CCS(=O)(=O)c2ccccc2)N=C(c2ccc(OCCCO)cc2)O[C@@H]1c1ccccc1N=[N+]=[N-]"
observed_property = "z-score"
numeric_result = 1.24


----------
target-or-system: Pro-neuregulin-1, membrane-bound isoform (Homo sapiens)
experiment-notes: NRG1 binders on small-molecule microarrays, primary screen, psychiatric disease protein project, biochemical, small-molecule microarray, fluorescence 635/667 (AID 1075);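 note: score combines 667 nm spot fluorescence with signal to noise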
measurement-setup: NRG1 binding, 635 nm fluorescence, higher = more signal
observed-property: composite z-score

[[record]]
molecule = "COCCCNC(=O)[C@@]1(Cc2ccccc2N=[N+]=[N-])N=C(c2ccc(OCCCO)cc2)O[C@H]1c1ccccc1"
numeric_result = 1.38

[[record]]
molecule = "C[C@@H]1ON(c2ccc(C(=O)OC(C)(C)C)cc2)[C@H](c2ccc(O)cc2)[C@H]1C(=O)N1C(=O)OC[C@H]1Cc1ccccc1"
numeric_result = 0.803

[[record]]
molecule = "C[N+](C)(C)CCCCCCNC(=O)[C@H]1C[C@H]2C(=O)NCC(=O)N2[C@H]1c1ccc(O)cc1"
numeric_result = 1.52

[[record]]
molecule = "COC(=O)[C@@]1(Cc2ccc(OC)cc2)[C@H]2c3cc(C(=O)N(C)C)n(CCO)c3C[C@H]2CN1C(=O)c1ccccc1"
numeric_result = 2.13

[[record]]
molecule = "C=CCC(OC(C)=O)[C@@H]1[C@@H](N(Cc2cc3ccccc3o2)C(=O)c2ccc(-c3ccccc3)cc2)c2cc(OCCCO)ccc2N1C(=O)c1ccc2ccccc2c1 (stereo partly specified)"
numeric_result = 0.0445

[[record]]
molecule = "O=C1O[C@@H](c2ccccc2)[C@@H](c2ccccc2)N2[C@@H](c3ccc(O)cc3)[C@]3(C(=O)Nc4ccc(C#CC5(O)CCCCCC5)cc43)[C@@H](C(=O)NC[C@H](O)c3ccccc3)[C@H]12"
numeric_result = 1.02


----------
target-or-system: Pro-neuregulin-1, membrane-bound isoform (Homo sapiens) (UniProt Q02297)
Sequence (Q02297 whole entry, looked up, canonical isoform): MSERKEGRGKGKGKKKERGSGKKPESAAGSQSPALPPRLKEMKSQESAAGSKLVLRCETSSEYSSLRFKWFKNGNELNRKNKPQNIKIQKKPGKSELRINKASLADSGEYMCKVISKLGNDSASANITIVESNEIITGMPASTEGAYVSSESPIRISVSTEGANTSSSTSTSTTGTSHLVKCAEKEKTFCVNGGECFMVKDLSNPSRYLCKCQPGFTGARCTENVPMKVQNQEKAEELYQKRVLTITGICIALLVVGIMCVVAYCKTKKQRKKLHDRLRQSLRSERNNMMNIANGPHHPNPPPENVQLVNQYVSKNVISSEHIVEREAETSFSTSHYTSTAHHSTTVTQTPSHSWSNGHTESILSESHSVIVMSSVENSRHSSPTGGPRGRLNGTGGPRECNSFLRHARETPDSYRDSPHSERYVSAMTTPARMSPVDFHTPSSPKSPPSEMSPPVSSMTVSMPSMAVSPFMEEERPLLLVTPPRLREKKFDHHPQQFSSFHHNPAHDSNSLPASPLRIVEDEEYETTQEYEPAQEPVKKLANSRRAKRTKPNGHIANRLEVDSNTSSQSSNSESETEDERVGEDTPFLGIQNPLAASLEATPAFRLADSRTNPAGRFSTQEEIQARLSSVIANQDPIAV
experiment-notes: NRG1 binders on small-molecule microarrays, primary screen, psychiatric disease protein project, biochemical, small-molecule microarray, fluorescence 635/667 (AID 1075);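 note: score combines 667 nm spot fluorescence with signal to noise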
measurement-setup: NRG1 binding, 635 nm fluorescence, higher = more signal
Measured composite z-score, listed per entry.
observed-property: composite z-score

[[record]]
compound = "COCCOC(=O)N1C(=O)[C@@]2(c3cc(C#CC4=CCCCC4)ccc31)[C@H](C(=O)N1CCCCCCC1)[C@H]1C(=O)O[C@H](c3ccccc3)[C@H](c3ccccc3)N1[C@@H]2c1ccc(O)cc1"
result = -0.215

[[record]]
compound = "COCCCNC(=O)[C@@]1(Sc2ccc(C)cc2)CC(=O)N(C2CCCCC2)[C@@H]1c1ccc(CO)cc1"
result = -0.113

[[record]]
compound = "NC(=O)NCC#Cc1ccc2c(c1)[C@]1(C(=O)N2)[C@H](C(=O)NC[C@H](O)c2ccccc2)[C@H]2C(=O)O[C@H](c3ccccc3)[C@H](c3ccccc3)N2[C@@H]1c1ccc(OCCO)cc1"
result = 0.897

[[record]]
compound = "[N-]=[N+]=Nc1ccccc1C[C@]1(C(N)=O)N=C(c2ccc(OCCCO)cc2)O[C@H]1c1ccccc1N=[N+]=[N-]"
result = 1.42

[[record]]
compound = "O=C(CS)NCCCCCNC(=O)[C@@H]1C[C@@H]2C(=O)N3CCC[C@H]3C(=O)N2[C@@H]1c1cccc(OCCO)c1"
result = 1.19

[[record]]
compound = "[N-]=[N+]=NCc1ccccc1[C@@H]1OC(c2ccc(OCCCO)cc2)=N[C@]1(CCS(=O)(=O)c1ccccc1)C(=O)NCC(O)CO (stereo partly specified)"
result = 2


----------
Measured composite z-score, listed per entry for reference.
System: Sonic hedgehog protein (Shh)
experiment-notes: small-molecule binders of Shh protein, primary screen, biochemical, small-molecule microarray, 635/667 nm fluorescence (AID 1151);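 note: Shh protein binding to compounds spotted on small-molecule microarray slides; score combines spot fluorescence intensity with signal-to-noise across triplicate slides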
measurement-setup: small-molecule microarray binding, 635 nm fluorescence; higher = more signal
observed-property: composite z-score

[[record]]
molecule = "OCCCC1=CC(c2ccc(CN3CCCC3)cc2)N(Cc2sc3ccccc3c2Cl)CC1 (stereo not drawn)"
numeric_result = 1.46

[[record]]
molecule = "C=CC[C@]1(C(=O)NCCN2CCOCC2)N=C(c2ccc(OCCCO)cc2)O[C@H]1c1ccccc1CN=[N+]=[N-]"
numeric_result = 0.284

[[record]]
molecule = "CC(C)C(CO)N1C(=O)[C@@H]2C3C(=O)OCCC/C=C\\[C@H]3OC23C=CCN(C(C)(C)C)C(=O)[C@@H]13 (stereo partly drawn)"
numeric_result = 0.5

[[record]]
molecule = "C=CCC(OC(C)=O)[C@@H]1[C@@H](N(Cc2cccc3ccccc23)C(=O)c2cccc3ccccc23)c2cc(OCCCO)ccc2N1C(=O)c1ccc(-c2ccccc2)cc1 (stereo partly drawn)"
numeric_result = 0.556

[[record]]
molecule = "COc1cc(OC)c(C(O)C2C=CC3C(=O)N(c4ccccc4)C(=O)C3N2Nc2ccccc2)cc1Br (stereo not drawn)"
numeric_result = -0.381

[[record]]
molecule = "COCCOC(=O)N1C(=O)[C@@]2(c3cc(C#Cc4ccc(OC)cc4)ccc31)[C@H](c1ccccc1OCCO)N1[C@H](c3ccccc3)[C@H](c3ccccc3)OC(=O)[C@H]1[C@@H]2C(=O)N1CCCCCCC1"
numeric_result = 2.04

[[record]]
molecule = "CCOC(=O)C1=CC[C@@H](c2ccccc2C(F)(F)F)N(S(=O)(=O)c2ccc(C)cc2)[C@H]1c1ccc(C#N)cc1"
numeric_result = 0.494

[[record]]
molecule = "CCCCCCCCCCC(O)C1C=CC2C(=O)N(C)C(=O)C2N1Nc1ccc([N+](=O)[O-])cc1[N+](=O)[O-] (stereo not drawn)"
numeric_result = -0.412

[[record]]
molecule = "CC(C)N1CC=CC23O[C@@H]4C=CCOC(=O)[C@@H]4[C@H]2C(=O)N(CCCO)[C@@H]3C1=O (stereo partly drawn)"
numeric_result = -0.182

[[record]]
molecule = "C=CCC(OC(C)=O)[C@@H]1[C@@H](N(Cc2cc3ccccc3o2)C(=O)c2ccc(C)cc2)c2cc(OCCCO)ccc2N1C(=O)Cc1ccc(OC)cc1 (stereo partly drawn)"
numeric_result = 0.809

[[record]]
molecule = "COCCOC(=O)N1C(=O)[C@@]2(c3cc(C#CCNC(N)=O)ccc31)[C@H](C(=O)N1CCc3cc(OC)c(OC)cc3C1)[C@H]1C(=O)O[C@H](c3ccccc3)[C@H](c3ccccc3)N1[C@@H]2c1ccccc1OCCO"
numeric_result = 1.81

[[record]]
molecule = "C=CCOC(=O)[C@H]1[C@@H]2C(=O)O[C@@H](c3ccccc3)[C@@H](c3ccccc3)N2[C@@H](c2ccc(OCCOC(=O)[C@@H]3C[C@@H]4C(=O)N[C@@H](CCCCN(C)C)C(=O)N4[C@@H]3c3ccc(O)cc3)cc2)[C@]12C(=O)Nc1ccccc12"
numeric_result = 1.96

[[record]]
molecule = "COc1cc2c(cc1O)C(C)N(Cc1ccc([N+](=O)[O-])o1)CC2 (stereo not drawn)"
numeric_result = 0.0196

